Parameter IC50: see the listing below.
System: MCF-7 cells
Assay: cells
Format: cell-based
Conditions: Homo sapiens, MCF7, 24 h, read-out: IC50 (cytotoxicity)
Method: The human breast cancer cell line, MCF-7, was obtained from American Type Cell Collection (ATCC) (Rockville, Mo., U.S.A.). […] Absorbance was measured at 480 nm with the Biochrom Anthos 2010 microplate reader (Biochrom Ltd., Cambourne, Cambridge, UK). The half maximal inhibitory concentrations (IC50) were calculated from log-linear regression from the absorbance optical density (OD).
Kindly answer with a numeric value in µM, unit omitted.

Molecule | Experimental value
CN(Cc1cnc2nc(N)nc(N)c2n1)c1ccc(C(=O)N[C@@H](CCC(=O)O)C(=O)O)cc1 [MTX, reference compound] | 3270

Inquiry: Looking for the measured IC50 of CC(C)CCC[C@@H](C)[C@H]1CC[C@H]2[C@@H]3CC=C4C[C@@H](OC(=O)NCCCCNCCCNC(=O)[C@H](CCC(=O)O)NC(=O)c5ccc(N(C)Cc6cnc7nc(N)nc(N)c7n6)cc5)CC[C@]4(C)[C@H]3CC[C@]12C [Embodied compound] , can you help?
Reply text: 60

Data origin: patent US11129899B1
